Values compiled from PubChem BioAssay.

Listed molecules paired with reported red/green cell ratio (normalised)
- Measurement notes: differential killing of epithelial or mesenchymal cells, primary screen, imaging, PC-3E GFP, TEM4-18 mCherry, co-culture (AID 1345086);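 further: cells exposed to compound for 72 h before imaging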;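 on red/green cell ratio (normalised): normalised mesenchymal count divided by normalised epithelial count so high means epithelial killing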
- Condition set: imaging cell counts, at 1 µM, actives lie on both sides, counts scaled to control wells, 1 = unselective
Please state the value as a number alone, without comment.

Molecule	red/green cell ratio (normalised)
Cc1c(C)c2c(c(C)c1O)CCC(C)(C(=O)O)O2 (stereo not given)	0.84

red/green cell ratio (normalised) recorded for this molecule, CC(=O)OCC[C@H](C)CCC=C(C)C , is 1.13

red/green cell ratio (normalised) recorded for this molecule, O=C(O)c1ccc([C@H](O)c2ccccc2)cn1 , is 1.05

The recorded red/green cell ratio (normalised) for CC(=O)O[C@]1(C(C)=O)CCC2C3C=C(C)C4=CC(=O)CCC4(C)C3CCC21C (stereo not given in full) is 0.94

Record C#C[C@]1(O)CCC2C3CCc4cc(OC5CCCC5)ccc4C3CC[C@@]21C (stereo not given in full) , field red/green cell ratio (normalised): 0.98

Lab note: CC1(C)C(C(=O)O)N2C(=O)C[C@H]2S1(=O)=O (stereo not given in full) gave red/green cell ratio (normalised) of 0.69

Form field red/green cell ratio (normalised), entry CN[C@@H]1[C@H](O[C@H]2[C@H](O[C@@H]3[C@@H](O)[C@H](O)[C@@H](N=C(N)N)[C@H](O)[C@H]3N=C(N)N)O[C@@H](C)[C@]2(O)C=O)O[C@@H](CO)[C@H](O)[C@H]1O : 0.77

The molecule C=C1C(=O)O[C@@H]2C(=O)O[C@@H](CCCCCCCC)[C@H]12 showed red/green cell ratio (normalised) equal to 0.86

Please fill in: red/green cell ratio (normalised) reported for NC(COCc1ccccc1)C(=O)O (stereo not given) = 0.87

Kindly note the recorded red/green cell ratio (normalised) for O=C(O)CNC(=O)c1ccc([C@H](O)c2ccccc2)cn1 , which is 0.86

----------
- Measurement notes: ovarian cancer cell viability with rucaparib, profiling panel, oncology-focused library, rucaparib conditional (AID 1508598)
- Condition set: patient-derived ovarian cancer cells, CellTiter-Glo viability, 144 h; at 0.313 µM; OCI-P5x cells; without rucaparib; stronger effect = lower value
Readout name: viability (%)
Provide the reading as a plain figure in %.

// known answers, use as guide
> print(dat)
                            chemical.smiles  quantitative.result
1  O=C(c1ccc(OCCN2CCCCC2)cc1)c1c(-c2ccc(O)cc2)sc2cc(O)ccc12                  104
2  C[C@H](NC(=O)Cc1cc(F)cc(F)c1)C(=O)N[C@H](C(=O)OC(C)(C)C)c1ccccc1                   99
3  O=C(O)c1ccc(-c2c[nH]c3ncc(-c4ccccc4)cc23)cc1C1CCCC1                  102
4  CN(C)CCCn1cc(C2=C(c3c[nH]c4ccccc34)C(=O)NC2=O)c2ccccc21                  109
5  O=c1cc(-c2cccc3c2Sc2ccccc2S3)oc(N2CCOCC2)c1                  105
6        NC(=O)Nc1sc(-c2ccc(F)cc2)cc1C(N)=O                   93
7  Nc1nc(Cl)nc2c1ncn2[C@H]1C[C@H](O)[C@@H](CO)O1                 50.8
8     O=c1cc(N2CCOCC2)oc2c(-c3ccccc3)cccc12                 97.6

molecule O=C(O)Cc1cccc(OCCCN(Cc2cccc(C(F)(F)F)c2Cl)CC(c2ccccc2)c2ccccc2)c1 , viability observed: 96.5

----------
- Test system: R275C/beta1
- Measurement notes: modulators of BK channel variants, profiling panel, selectivity assay, cell-based, U2OS BacMam, thallium flux, beta subunits (AID 1259406);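 further: initial slope of Thallos dye fluorescence rise after thallium is added; log ratio against the mean of 0.3% DMSO vehicle wells on the same plate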
- Condition set: at 30 µM
The source made the active and inactive calls.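 The calls were made as follows: active = thallium flux through the channel raised or lowered by more than 3 SD from vehicle-only wells, actives on both sides; inactive = the rest.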
Readout name: log fold change Tl+ flux

// log fold change Tl+ flux lookup, compound = NC(CS(=O)(=O)Cc1ccco1)=NO , result: -0.00211 (inactive)

----------
- Measurement notes: differential killing of epithelial or mesenchymal cells, primary screen, imaging, PC-3E GFP, TEM4-18 mCherry, co-culture (AID 1345086);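 further: cells exposed to compound for 72 h before imaging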;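 on red/green cell ratio (normalised): normalised mesenchymal count divided by normalised epithelial count so high means epithelial killing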
- Condition set: imaging cell counts, at 1 µM, actives lie on both sides, counts scaled to control wells, 1 = unselective
Readout name: red/green cell ratio (normalised)
When you answer, write just the number.

Recorded red/green cell ratio (normalised), per entry:
> print(dat)
                                   compound  quantitative.result
1  CC1(C)C(=O)C=C[C@@]2(C)C1C=C[C@]1(C)C2CC[C@@]2(C)[C@H](c3ccoc3)OC(=O)[C@H]3O[C@]321 (stereo partly specified)                  1.3
2  CC(=O)O[C@]1(C(C)=O)CCC2C3C[C@H](C)C4=CC(=O)CC[C@]4(C)C3CC[C@@]21C (stereo partly specified)                 1.21
3                  COc1ccc2cc(C(C)=O)ccc2c1                 1.13
4    NCC1CCCCC1CC(=O)O (stereo unspecified)                  0.8

For reference, reported red/green cell ratio (normalised) for O=C1NCC[C@H]1Oc1ccc(Oc2cnc3ccc(Cl)cc3n2)cc1 stands at 0.76

The recorded red/green cell ratio (normalised) for OCC(S)CS (stereo unspecified) is 1.01

----------
- Tested on: F380Y/beta2Delta
- Measurement notes: modulators of BK channel variants, profiling panel, selectivity assay, cell-based, U2OS BacMam, thallium flux, beta subunits (AID 1259406);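 further: initial slope of Thallos dye fluorescence rise after thallium is added; log ratio against the mean of 0.3% DMSO vehicle wells on the same plate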
- Condition set: at 30 µM
Activity calls are given as the source filed them.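 Rule for the calls: active = thallium flux through the channel raised or lowered by more than 3 SD from vehicle-only wells, actives on both sides; inactive = the rest.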
Outcome (select one): active, inactive

Worked set:
> print(dat)
                                   compound  label.class
1                  COC(OC)c1ccc(C#N)c(SC)n1     inactive
2  CN/C(=C\[N+](=O)[O-])NCCSCc1csc(CN(C)C)n1     inactive
3  O=C(NNc1c(Cl)cccc1Cl)c1csc(Cc2c(Cl)cccc2Cl)n1     inactive
4  COC(=O)c1cc(S(=O)(=O)N(Cc2ccc(OC)cc2)Cc2cccn2C)oc1C     inactive
5   CSc1nc2cc(Oc3cccc(Cl)c3Cl)c(Cl)cc2[nH]1     inactive

**Query** For COC(=O)C(C#N)=C1NC(C)=NC(SC)=C1C#N , which call appears in the assay record?
**Result** inactive

**Query** # outcome recorded in this test, key = CC1CC2C3CCC4=CC(=O)C=CC4(C)C3(F)C(O)CC2(C)C1(O)C(=O)CO (stereo unspecified)
**Result** inactive

**Query** State the result this test recorded for Cc1ccc(S(=O)(=O)NC(=O)NCc2csc3ccc(Cl)cc23)cc1 .
**Result** active

**Query** Please let me know the test result on file for CCOC(=O)[C@@H](CCc1ccccc1)N[C@@H](C)C(=O)N1CCC[C@H]1C(=O)O .
**Result** inactive

**Query** What did the test return for CN(C)C1C(=O)C(C(N)=O)=C(O)C2(O)C(=O)C3=C(O)c4c(O)ccc(Cl)c4C(O)C3CC12 (stereo unspecified) ?
**Result** inactive

**Query** Name the outcome recorded for Cc1nn(-c2ccccc2)nc1CNC(=O)COc1ccccc1 in the assay.
**Result** inactive

----------
- Measurement notes: SU-DIPG-VI glioma cell viability, MIPE4.0 library, CellTiter-Glo luminescence, qHTS (AID 1347066);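 further: cells exposed to compound for 48 hours before readout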
- Condition set: CellTiter-Glo ATP luminescence
Records with an inconclusive call do not appear. Calls of active or inactive are those of the source. The limit is not given here; nearly all actives have AC50 up to about 30 µM.
Outcomes you can answer with include only these: t for active, f for inactive

Solved entries:
Compound	Label class
CC(=O)O[C@H]1C(=O)[C@@]2(C)C([C@H](OC(=O)c3ccccc3)[C@]3(O)C[C@H](OC(=O)[C@H](O)[C@@H](NC(=O)c4ccccc4)c4ccccc4)C(C)=C1C3(C)C)[C@]1(OC(C)=O)CO[C@@H]1C[C@@H]2O (stereo not given in full)	f
Oc1cc2c(cc1O)C1c3ccc(O)c(O)c3OCC1(O)C2 (stereo not given)	f
O=C(c1ccc(Nc2nccc(-c3cc4ccccc4s3)n2)cc1)N1CCC(N2CCCC2)CC1	t
C[C@]12CCC3c4ccc(O)cc4CCC3C1CCC2=O (stereo not given in full)	f

Now, please, on to the next compound.
**Query** Tell me the assay call for CCOC(=O)C1=C(N)Oc2ccc(Br)cc2C1C(C#N)C(=O)OCC (stereo not given) please.
**Result** t

----------
- Measurement notes: differential killing of epithelial or mesenchymal cells, primary screen, imaging, PC-3E GFP, TEM4-18 mCherry, co-culture (AID 1345086);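 further: cells exposed to compound for 72 h before imaging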
- Condition set: imaging cell counts, measured here: epithelial PC-3E GFP cell survival, at 1 µM
Readout name: normalised cell number
Just the number.

Compound	normalised cell number
C#C[C@]1(OC(C)=O)CCC2C3CCC4=C/C(=N/O)CCC4C3CC[C@@]21CC (stereo partly specified)	1.02
O=c1[nH]c(=O)n(C2C[C@@H](O)[C@@H](CO)O2)cc1F (stereo partly specified)	0.79

Recorded normalised cell number (compound Nc1ccn(C2O[C@H](CO)[C@@H](O)[C@H]2O)c(=O)n1 (stereo partly specified) ): 1.06

normalised cell number reported for this compound C=C(C)n1cc(C(=O)O)c(=O)c2cc(F)c(N3CC[C@@H](CN)C3)c(OC)c21 : 1.07

Lookup result for C[C@@H]1CC2C3C[C@H](F)C4=CC(=O)C=C[C@]4(C)[C@@]3(F)[C@@H](O)C[C@]2(C)[C@@]1(O)C(=O)CO (stereo partly specified) ; measured normalised cell number: 1.15

The value of normalised cell number measured for the compound CN(C)CCOc1ccc(/C(=C(/CCCl)c2ccccc2)c2ccccc2)cc1 turned out to be 1.07

Given item CCC(C)[C@H]1O[C@]2(CC[C@@H]1C)C[C@@H]1C[C@@H](C/C=C(\C)[C@@H](OC3C[C@H](OC)C(O[C@H]4C[C@H](OC)[C@@H](O)[C@H](C)O4)[C@H](C)O3)[C@@H](C)/C=C/C=C3\COC4[C@H](O)C(C)=C[C@@H](C(=O)O1)[C@]34O)O2 (stereo partly specified) , the value recorded as its normalised cell number is 1.17

Form field normalised cell number, entry CC[C@]1(O)CC2CN(CCc3c([nH]c4ccccc34)[C@@](C(=O)OC)(c3cc4c(cc3OC)N(C)[C@H]3[C@@](O)(C(=O)OC)[C@H](OC(C)=O)[C@]5(CC)C=CCN6CC[C@]43[C@@H]65)C2)C1 (stereo partly specified) : 0.16

The value of normalised cell number measured for the compound CNC[C@@H](O)c1ccc(O)c(O)c1 turned out to be 1.01

In plain terms, COCC1O[C@@H](OC)[C@@H](OCc2ccccc2)[C@@H](OCc2ccccc2)C1O (stereo partly specified) has a documented normalised cell number of 1.18

The compound listed as CC1(C)C(C(=O)O)N2C(=O)C[C@H]2S1(=O)=O (stereo partly specified) shows normalised cell number equal to 1.22
